Listing of recorded inhibition by entry.
Molecular target: CDK3/Cyclin E (Homo sapiens) (UniProt P24864+Q00526);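 further: each figure is a mean percent inhibition of the CDK3/cyclin E complex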
Sequence (P24864 whole entry, looked up): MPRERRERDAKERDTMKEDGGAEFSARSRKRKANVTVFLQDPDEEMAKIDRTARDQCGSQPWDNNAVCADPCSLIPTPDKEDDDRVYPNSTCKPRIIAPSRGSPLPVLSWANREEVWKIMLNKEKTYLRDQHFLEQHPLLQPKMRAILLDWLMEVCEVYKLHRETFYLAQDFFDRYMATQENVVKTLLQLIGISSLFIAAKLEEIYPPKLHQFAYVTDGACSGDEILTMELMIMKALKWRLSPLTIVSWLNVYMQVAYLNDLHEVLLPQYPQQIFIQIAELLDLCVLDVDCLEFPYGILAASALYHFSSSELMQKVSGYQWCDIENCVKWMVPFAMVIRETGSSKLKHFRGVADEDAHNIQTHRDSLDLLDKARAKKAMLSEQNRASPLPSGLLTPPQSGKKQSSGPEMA
Sequence (Q00526 whole entry, looked up): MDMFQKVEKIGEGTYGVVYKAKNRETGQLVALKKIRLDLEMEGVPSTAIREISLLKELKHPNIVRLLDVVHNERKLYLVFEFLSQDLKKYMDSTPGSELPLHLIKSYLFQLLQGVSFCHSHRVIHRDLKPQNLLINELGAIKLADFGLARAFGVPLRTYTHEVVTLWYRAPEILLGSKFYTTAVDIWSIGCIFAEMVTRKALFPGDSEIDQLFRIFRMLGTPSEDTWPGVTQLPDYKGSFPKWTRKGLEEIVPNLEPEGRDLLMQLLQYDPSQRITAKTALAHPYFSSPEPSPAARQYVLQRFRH
Settings: at 1 µM

COMPOUND | inhibition
COc1cc(C=NNc2ncnc3c2cnn3Cc2ccccc2)ccc1O | 2.73%
Cc1cc(-c2ccco2)cc(C)c1/C=C/c1cncc(-c2nn[nH]n2)c1 | -1.27%
Nc1nonc1-c1nc2cnccc2n1C1CCCCC1 | 11.3%
Fc1ccc(-c2ncn(C3CCNCC3)c2-c2ccnc(Oc3ccccc3)n2)cc1 | -2.25%

---

Molecular target: Insulin receptor (Homo sapiens) (UniProt P06213);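 further: each figure is a mean inhibition value from the GSK PKIS screening panel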
Sequence (P06213 28-758 limits assumed): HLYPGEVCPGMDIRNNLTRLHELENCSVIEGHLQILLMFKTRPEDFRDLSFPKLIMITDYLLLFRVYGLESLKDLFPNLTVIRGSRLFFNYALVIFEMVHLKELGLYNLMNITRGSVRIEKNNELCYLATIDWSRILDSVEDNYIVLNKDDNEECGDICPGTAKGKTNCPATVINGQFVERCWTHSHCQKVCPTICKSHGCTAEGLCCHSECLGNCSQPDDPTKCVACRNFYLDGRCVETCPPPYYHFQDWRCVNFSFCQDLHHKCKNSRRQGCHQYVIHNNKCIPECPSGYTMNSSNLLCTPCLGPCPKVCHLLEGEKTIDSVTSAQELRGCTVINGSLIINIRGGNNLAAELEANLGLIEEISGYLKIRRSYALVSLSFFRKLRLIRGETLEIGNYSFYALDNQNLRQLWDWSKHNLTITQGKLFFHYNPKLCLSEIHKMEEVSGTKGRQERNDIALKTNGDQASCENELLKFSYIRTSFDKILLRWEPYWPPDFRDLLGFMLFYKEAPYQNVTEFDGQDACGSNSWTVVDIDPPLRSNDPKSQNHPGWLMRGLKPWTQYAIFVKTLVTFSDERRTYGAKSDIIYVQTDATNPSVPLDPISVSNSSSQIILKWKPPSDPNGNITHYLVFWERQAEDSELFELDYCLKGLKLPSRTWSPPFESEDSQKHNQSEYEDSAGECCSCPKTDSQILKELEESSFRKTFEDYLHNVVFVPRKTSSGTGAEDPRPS
Sequence (P06213 763-1382 limits assumed): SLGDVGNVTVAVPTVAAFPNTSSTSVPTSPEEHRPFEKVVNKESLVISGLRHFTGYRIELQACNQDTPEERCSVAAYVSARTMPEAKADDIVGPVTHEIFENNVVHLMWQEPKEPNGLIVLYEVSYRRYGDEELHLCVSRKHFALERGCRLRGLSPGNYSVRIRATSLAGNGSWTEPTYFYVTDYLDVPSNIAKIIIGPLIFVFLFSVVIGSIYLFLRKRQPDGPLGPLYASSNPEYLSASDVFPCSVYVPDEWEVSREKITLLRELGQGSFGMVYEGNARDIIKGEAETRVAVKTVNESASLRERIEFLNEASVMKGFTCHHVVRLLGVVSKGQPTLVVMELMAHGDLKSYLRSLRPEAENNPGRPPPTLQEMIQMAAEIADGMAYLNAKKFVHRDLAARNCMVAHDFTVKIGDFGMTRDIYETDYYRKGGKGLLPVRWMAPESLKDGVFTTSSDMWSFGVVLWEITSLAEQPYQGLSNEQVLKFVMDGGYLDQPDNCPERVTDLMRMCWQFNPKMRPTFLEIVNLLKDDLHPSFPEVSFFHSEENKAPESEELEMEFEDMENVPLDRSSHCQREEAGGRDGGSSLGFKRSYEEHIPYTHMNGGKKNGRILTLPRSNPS
Conditions: at 1 µM
PROPERTY_MEASURED: inhibition

COMPOUND | VALUE
NS(=O)(=O)c1ccc(-c2ccc3c(NC(=O)C4CC4)n[nH]c3c2)cc1 | 2.43%
COc1cc2c(cc1Nc1nc(Nc3ccsc3C(N)=O)c3cc[nH]c3n1)N(C(=O)CN(C)C)CCC2 | 99.9%
Cc1cc(-c2ccco2)cc(C)c1/C=C/c1cncc(-c2nn[nH]n2)c1 | 0.42%
NC(=O)c1sc(-n2cnc3cc(C(F)(F)F)ccc32)cc1OCc1ccccc1Br | 1.77%

---

Molecular target: Ribosomal protein S6 kinase alpha-3 (Homo sapiens) (UniProt P51812)
Sequence (P51812 whole entry): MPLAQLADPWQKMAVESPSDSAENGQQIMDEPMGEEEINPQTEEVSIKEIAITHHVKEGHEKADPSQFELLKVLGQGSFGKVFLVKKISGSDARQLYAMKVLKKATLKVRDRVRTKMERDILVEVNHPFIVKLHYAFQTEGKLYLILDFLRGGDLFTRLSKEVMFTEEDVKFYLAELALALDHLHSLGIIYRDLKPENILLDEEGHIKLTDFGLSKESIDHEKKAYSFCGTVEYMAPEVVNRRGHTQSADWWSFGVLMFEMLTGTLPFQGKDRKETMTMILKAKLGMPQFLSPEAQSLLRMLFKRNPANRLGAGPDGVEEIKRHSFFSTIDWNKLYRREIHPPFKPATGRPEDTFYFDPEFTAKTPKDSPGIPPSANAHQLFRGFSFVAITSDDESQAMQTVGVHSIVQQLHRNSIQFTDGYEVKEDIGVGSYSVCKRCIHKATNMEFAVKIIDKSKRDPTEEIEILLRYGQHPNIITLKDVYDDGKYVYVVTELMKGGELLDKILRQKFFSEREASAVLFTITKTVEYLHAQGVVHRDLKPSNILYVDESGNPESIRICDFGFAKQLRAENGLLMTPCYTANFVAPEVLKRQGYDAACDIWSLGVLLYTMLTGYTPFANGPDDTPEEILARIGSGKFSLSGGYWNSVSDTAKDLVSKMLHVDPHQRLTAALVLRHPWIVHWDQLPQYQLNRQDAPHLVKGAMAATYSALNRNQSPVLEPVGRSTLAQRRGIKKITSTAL
Settings: at 1 µM
Description: GSK_PKIS: RSK2 mean inhibition at 1 uM [Nanosyn]
Listing of recorded inhibition by entry.
PROPERTY_MEASURED: inhibition

COMPOUND | VALUE
COc1cc(C=NNc2ncnc3c2cnn3Cc2ccccc2)ccc1O | 3.94%
NS(=O)(=O)c1ccc(-c2ccc3c(NC(=O)C4CC4)n[nH]c3c2)cc1 | 1.28%
CCn1c(-c2nonc2N)nc2c(C#CCN)ncc(OCCCN)c21 | 72.9%
Cc1cc(-c2ccco2)cc(C)c1/C=C/c1cncc(-c2nn[nH]n2)c1 | 0.7%
CCn1c(-c2nonc2N)nc2c(C#CC(C)(C)O)ncc(OCC3CCNCC3)c21 | 19%

---

Molecular target: Cyclin-dependent kinase 2 (Homo sapiens) (UniProt P24941);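 further: mean inhibition of CDK2 bound to cyclin A, from the GSK PKIS kinase inhibitor set screen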
Conditions: at 0.1 µM
Listing of recorded inhibition by entry.

COMPOUND | inhibition [%]
COc1cc(C=NNc2ncnc3c2cnn3Cc2ccccc2)ccc1O | 0.83
CCn1c(-c2nonc2N)nc2c(C#CC(C)(C)O)ncc(OC[C@@H]3CCCN3)c21 | -1.52
NS(=O)(=O)c1ccc(-c2ccc3c(NC(=O)C4CC4)n[nH]c3c2)cc1 | 2.91
CCn1c(-c2nonc2N)nc2c(C#CC(C)(C)O)nc(O[C@@H](CN)c3ccccc3)cc21 | 2.07
COc1cc2c(cc1Nc1nc(Nc3ccsc3C(N)=O)c3cc[nH]c3n1)N(C(=O)CN(C)C)CCC2 | 4.39
NS(=O)(=O)c1ccc(N/C=C2\C(=O)Nc3ccc4ncsc4c32)cc1 | 82.7
COc1cccc(-n2ncc3c(N/N=C/c4ccncc4)ncnc32)c1 | 47
Cc1cc(-c2ccco2)cc(C)c1/C=C/c1cncc(-c2nn[nH]n2)c1 | 0.49

---

Target: MAP kinase-activated protein kinase 3 (Homo sapiens) (UniProt Q16644)
Sequence (Q16644 whole entry, looked up): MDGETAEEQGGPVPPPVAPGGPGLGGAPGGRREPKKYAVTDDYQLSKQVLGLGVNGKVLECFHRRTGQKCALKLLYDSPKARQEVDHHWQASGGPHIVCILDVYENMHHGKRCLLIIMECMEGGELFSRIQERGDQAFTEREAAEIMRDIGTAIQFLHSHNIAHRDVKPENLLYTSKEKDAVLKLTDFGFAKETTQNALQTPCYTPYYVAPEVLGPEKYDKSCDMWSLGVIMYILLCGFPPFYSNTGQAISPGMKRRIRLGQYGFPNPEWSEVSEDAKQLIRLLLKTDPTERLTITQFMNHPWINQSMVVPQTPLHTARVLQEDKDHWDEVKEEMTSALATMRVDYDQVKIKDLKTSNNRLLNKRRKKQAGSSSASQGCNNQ
Settings: at 0.1 µM
Description: GSK_PKIS: MAPKAPK3 mean inhibition at 0.1 uM [Nanosyn]

COMPOUND | ASSAY_SYSTEM | ENDPOINT_UNIT | inhibition
Cc1cc(-c2ccco2)cc(C)c1/C=C/c1cncc(-c2nn[nH]n2)c1 | MAP kinase-activated protein kinase 3 (Homo sapiens) (UniProt Q16644) | % | 1.42
COc1cc(C=NNc2ncnc3c2cnn3Cc2ccccc2)ccc1O | MAP kinase-activated protein kinase 3 (Homo sapiens) (UniProt Q16644) | % | -2.35
CCn1c(-c2nonc2N)nc2c(C#CC(C)(C)O)ncc(OC[C@@H]3CCCN3)c21 | MAP kinase-activated protein kinase 3 (Homo sapiens) (UniProt Q16644) | % | -0.39
NS(=O)(=O)c1ccc(N/C=C2\C(=O)Nc3ccc4ncsc4c32)cc1 | MAP kinase-activated protein kinase 3 (Homo sapiens) (UniProt Q16644) | % | 7.84
COc1cccc(COc2cc(-n3cnc4ccccc43)sc2C(N)=O)c1 | MAP kinase-activated protein kinase 3 (Homo sapiens) (UniProt Q16644) | % | 2.28
COc1cc2c(cc1Nc1nc(Nc3ccsc3C(N)=O)c3cc[nH]c3n1)N(C(=O)CN(C)C)CCC2 | MAP kinase-activated protein kinase 3 (Homo sapiens) (UniProt Q16644) | % | 6.83
CCn1c(-c2nonc2N)nc2c(C#CC(C)(C)O)nc(O[C@@H](CN)c3ccccc3)cc21 | MAP kinase-activated protein kinase 3 (Homo sapiens) (UniProt Q16644) | % | -3.02
CCn1c(-c2nonc2N)nc2c(C#CCN)ncc(OCCCN)c21 | MAP kinase-activated protein kinase 3 (Homo sapiens) (UniProt Q16644) | % | -1.07

---

Biological target: Phosphatidylinositol 4-kinase beta (Homo sapiens) (UniProt Q9UBF8);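 further: values given are mean percent inhibition of PI4K-beta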
Sequence (Q9UBF8 2-816 limits assumed): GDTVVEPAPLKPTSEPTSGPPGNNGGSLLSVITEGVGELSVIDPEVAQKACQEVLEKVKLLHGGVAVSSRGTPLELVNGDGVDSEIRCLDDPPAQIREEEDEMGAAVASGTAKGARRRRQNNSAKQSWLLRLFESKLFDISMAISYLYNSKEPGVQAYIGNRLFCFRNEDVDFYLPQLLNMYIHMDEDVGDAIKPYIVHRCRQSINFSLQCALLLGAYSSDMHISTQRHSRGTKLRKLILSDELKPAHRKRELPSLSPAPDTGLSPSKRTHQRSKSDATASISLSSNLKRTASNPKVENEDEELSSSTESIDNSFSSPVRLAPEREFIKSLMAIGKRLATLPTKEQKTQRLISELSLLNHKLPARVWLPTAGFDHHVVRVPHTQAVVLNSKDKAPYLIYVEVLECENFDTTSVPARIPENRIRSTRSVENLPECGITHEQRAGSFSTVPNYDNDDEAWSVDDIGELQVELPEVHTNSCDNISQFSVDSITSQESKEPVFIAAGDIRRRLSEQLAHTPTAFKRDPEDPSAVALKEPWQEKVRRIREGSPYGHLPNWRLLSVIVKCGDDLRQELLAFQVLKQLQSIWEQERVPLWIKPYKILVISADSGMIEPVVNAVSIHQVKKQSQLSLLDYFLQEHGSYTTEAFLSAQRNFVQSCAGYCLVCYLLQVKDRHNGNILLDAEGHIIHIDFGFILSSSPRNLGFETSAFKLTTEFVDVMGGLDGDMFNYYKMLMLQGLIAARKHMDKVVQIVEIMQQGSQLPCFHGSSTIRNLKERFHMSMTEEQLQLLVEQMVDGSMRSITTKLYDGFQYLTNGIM
Settings: at 0.1 µM
PROPERTY_MEASURED: inhibition (%)

COMPOUND | PROPERTY_MEASURED | VALUE
COc1cccc(COc2cc(-n3cnc4ccccc43)sc2C(N)=O)c1 | inhibition | 1.38
CCn1c(-c2nonc2N)nc2c(C#CCN)ncc(OCCCN)c21 | inhibition | 1.34
NS(=O)(=O)c1ccc(N/C=C2\C(=O)Nc3ccc4ncsc4c32)cc1 | inhibition | -2.13
CCn1c(-c2nonc2N)nc2c(C#CC(C)(C)O)nc(O[C@@H](CN)c3ccccc3)cc21 | inhibition | 6.5
Cc1cc(-c2ccco2)cc(C)c1/C=C/c1cncc(-c2nn[nH]n2)c1 | inhibition | -1.26
Fc1ccc(-c2ncn(C3CCNCC3)c2-c2ccnc(Oc3ccccc3)n2)cc1 | inhibition | 0.91

---

Molecular target: Protein kinase C iota type (Homo sapiens);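 further: reported figures are mean inhibition values from the GSK PKIS screen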
Sequence (whole entry): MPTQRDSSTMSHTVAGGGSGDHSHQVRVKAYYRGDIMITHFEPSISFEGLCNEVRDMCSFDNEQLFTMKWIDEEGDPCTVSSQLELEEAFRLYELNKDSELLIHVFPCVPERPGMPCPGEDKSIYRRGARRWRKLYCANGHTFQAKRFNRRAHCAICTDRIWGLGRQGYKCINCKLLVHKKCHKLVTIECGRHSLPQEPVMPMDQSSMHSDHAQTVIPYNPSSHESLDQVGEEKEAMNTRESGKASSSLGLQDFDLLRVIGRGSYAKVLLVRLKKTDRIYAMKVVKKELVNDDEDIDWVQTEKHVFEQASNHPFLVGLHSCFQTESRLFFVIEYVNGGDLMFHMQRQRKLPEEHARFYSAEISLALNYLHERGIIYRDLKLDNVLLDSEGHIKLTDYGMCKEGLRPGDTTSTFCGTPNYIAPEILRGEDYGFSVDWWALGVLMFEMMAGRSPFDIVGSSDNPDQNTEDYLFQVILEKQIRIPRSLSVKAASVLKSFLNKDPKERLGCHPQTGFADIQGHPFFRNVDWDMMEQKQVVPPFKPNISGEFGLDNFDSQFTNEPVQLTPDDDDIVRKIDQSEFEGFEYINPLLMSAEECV
Conditions: at 1 µM
PROPERTY_MEASURED: inhibition (%)

COMPOUND | VALUE
CCn1c(-c2nonc2N)nc2c(C#CC(C)(C)O)ncc(OCC3CCNCC3)c21 | 13.5
COc1cc(C=NNc2ncnc3c2cnn3Cc2ccccc2)ccc1O | -0.54
Fc1ccc(-c2ncn(C3CCNCC3)c2-c2ccnc(Oc3ccccc3)n2)cc1 | 1.84
CCn1c(-c2nonc2N)nc2c(C#CCN)ncc(OCCCN)c21 | 16.5
CCn1c(-c2nonc2N)nc2c(C#CC(C)(C)O)ncc(OC[C@@H]3CCCN3)c21 | 11.4
COc1cccc(COc2cc(-n3cnc4ccccc43)sc2C(N)=O)c1 | -0.85

---

Target: Dual specificity tyrosine-phosphorylation-regulated kinase 1B (Homo sapiens);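 further: values are mean percent inhibition of DYRK1B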
Conditions: at 0.1 µM
Listing of recorded inhibition by entry.

COMPOUND | ASSAY_SYSTEM | inhibition [%]
CCn1c(-c2nonc2N)nc2c(C#CC(C)(C)O)ncc(OCC3CCNCC3)c21 | Dual specificity tyrosine-phosphorylation-regulated kinase 1B (Homo sapiens) | -4.04
Cc1cc(-c2ccco2)cc(C)c1/C=C/c1cncc(-c2nn[nH]n2)c1 | Dual specificity tyrosine-phosphorylation-regulated kinase 1B (Homo sapiens) | -0.75
COc1cc(C=NNc2ncnc3c2cnn3Cc2ccccc2)ccc1O | Dual specificity tyrosine-phosphorylation-regulated kinase 1B (Homo sapiens) | 3.37
COc1cccc(COc2cc(-n3cnc4ccccc43)sc2C(N)=O)c1 | Dual specificity tyrosine-phosphorylation-regulated kinase 1B (Homo sapiens) | -0.5
CCn1c(-c2nonc2N)nc2c(C#CC(C)(C)O)nc(O[C@@H](CN)c3ccccc3)cc21 | Dual specificity tyrosine-phosphorylation-regulated kinase 1B (Homo sapiens) | 2.3
COc1cccc(-n2ncc3c(N/N=C/c4ccncc4)ncnc32)c1 | Dual specificity tyrosine-phosphorylation-regulated kinase 1B (Homo sapiens) | 16.2
NS(=O)(=O)c1ccc(N/C=C2\C(=O)Nc3ccc4ncsc4c32)cc1 | Dual specificity tyrosine-phosphorylation-regulated kinase 1B (Homo sapiens) | 9.26

---

System: Receptor-type tyrosine-protein kinase FLT3 (Homo sapiens), P36888 [D835Y]
Settings: at 0.1 µM
PROPERTY_MEASURED: inhibition (%)

COMPOUND | ASSAY_SYSTEM | ENDPOINT_UNIT | VALUE
CCn1c(-c2nonc2N)nc2c(C#CC(C)(C)O)ncc(OCC3CCNCC3)c21 | Receptor-type tyrosine-protein kinase FLT3 (Homo sapiens), P36888 [D835Y] | % | 3.83
CCn1c(-c2nonc2N)nc2c(C#CCN)ncc(OCCCN)c21 | Receptor-type tyrosine-protein kinase FLT3 (Homo sapiens), P36888 [D835Y] | % | 2.12
CCn1c(-c2nonc2N)nc2c(C#CC(C)(C)O)ncc(OC[C@@H]3CCCN3)c21 | Receptor-type tyrosine-protein kinase FLT3 (Homo sapiens), P36888 [D835Y] | % | -6.46
NS(=O)(=O)c1ccc(N/C=C2\C(=O)Nc3ccc4ncsc4c32)cc1 | Receptor-type tyrosine-protein kinase FLT3 (Homo sapiens), P36888 [D835Y] | % | 40.4
NS(=O)(=O)c1ccc(-c2ccc3c(NC(=O)C4CC4)n[nH]c3c2)cc1 | Receptor-type tyrosine-protein kinase FLT3 (Homo sapiens), P36888 [D835Y] | % | 2.16

Each recorded value in this set is attributed to ChEMBL document CHEMBL1961873.
